system: ATP; assay: switch fluorescence ratio, 500 uM ATP over buffer (Cy3 cluster intensity, sum of 5 cycles each) (fold (ratio)); higher = stronger signal-on switching upon ATP binding; sequences stand for … in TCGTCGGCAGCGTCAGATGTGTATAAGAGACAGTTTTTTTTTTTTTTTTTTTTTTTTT…TC; details: aptamer strand: ATP DNA aptamer (quencher-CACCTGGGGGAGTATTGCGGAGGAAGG + anchor), 100 nM annealed; ATP concentration: 500 uM;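 also: ATP exposure 15 min at 22 °C before imaging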
Catalogue of sequences with associated switch fluorescence ratio
// keep it numeric: no unit symbol after the value

# switch fluorescence ratio lookup, item TGGATCACTT
1.01

Now the same for GATACATGTG
1.05

Now the same for GGAGGCTAGC
1.01

---
# switch fluorescence ratio lookup, item AACTCTTAAG
1.03

Now the same for TTTTCCACGA
1.3

Now the same for GATGTGAATT
1.02

Now the same for ATCTATCGTG
0.991

Now the same for TAATTTTTAA
0.99

Now the same for GGGGATGCTC
1.03

---

system: ATP; assay: switch fluorescence ratio, 500 uM ATP over buffer (Cy3 cluster intensity, sum of 5 cycles each) (fold (ratio)); higher = stronger signal-on switching upon ATP binding; sequences stand for … in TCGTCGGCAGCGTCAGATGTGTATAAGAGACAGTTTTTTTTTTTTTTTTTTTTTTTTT…TC; details: aptamer strand: ATP DNA aptamer (quencher-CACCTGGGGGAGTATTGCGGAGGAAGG + anchor), 100 nM annealed; ATP concentration: 500 uM;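 also: ATP exposure 15 min at 22 °C before imaging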
recorded_endpoint: switch fluorescence ratio

Here are 4 sequences together with their reported answers.
# switch fluorescence ratio lookup, item TGCTGGAGCT
1.06

Now the same for AGTTTTTAAT
0.999

Now the same for ACCGTATGAC
1.05

Now the same for TTAGTAAACA
1.01

---
# switch fluorescence ratio lookup, item TAAAAAGGTG
1.12

Now the same for CGGGGGGAGA
1.03

Now the same for AGTGTCTATT
0.981

Now the same for AAGAGGGGTG
1.01

Now the same for AGAGCCACTG
1.01

Now the same for AATGGGGGTA
0.998

Now the same for AGCCATATTT
1.04

Now the same for CCCGGGAATC
1.06

Now the same for CGCTGAGCTG
1

Now the same for GCACACAAAA
1.05

Now the same for ATTAGGAGTC
0.999

Now the same for CGTGTTGTAC
1.13

Now the same for AAACTGTATT
1.08

Now the same for TTTGGGTTTT
1.01

Now the same for TAAAGGTGTA
1

Now the same for GGAGGTTAAC
1.01

---

test system: ATP; assay: switch fluorescence ratio, 500 uM ATP over buffer (Cy3 cluster intensity, sum of 5 cycles each) (fold (ratio)); higher = stronger signal-on switching upon ATP binding; sequences stand for … in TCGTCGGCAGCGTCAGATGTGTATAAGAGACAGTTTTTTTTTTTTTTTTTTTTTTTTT…TC; conditions: aptamer strand: ATP DNA aptamer (quencher-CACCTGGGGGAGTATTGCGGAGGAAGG + anchor), 100 nM annealed; ATP concentration: 500 uM;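 also: ATP exposure 15 min at 22 °C before imaging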
recorded_endpoint: switch fluorescence ratio

Here are 3 sequences together with their reported answers.
# switch fluorescence ratio lookup, item TTGAAGAGGT
0.976

Now the same for GACACACAAA
1.18

Now the same for TTAGATCGCC
0.969

Would you kindly look at the next entry?
# switch fluorescence ratio lookup, item TGGGTGGGAT
1

---

tested on: ATP; assay: switch fluorescence ratio, 500 uM ATP over buffer (Cy3 cluster intensity, sum of 5 cycles each) (fold (ratio)); higher = stronger signal-on switching upon ATP binding; sequences stand for … in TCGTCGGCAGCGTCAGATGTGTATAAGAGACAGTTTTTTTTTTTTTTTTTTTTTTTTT…TC; conditions: aptamer strand: ATP DNA aptamer (quencher-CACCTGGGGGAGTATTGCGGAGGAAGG + anchor), 100 nM annealed; ATP concentration: 500 uM;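 also: ATP exposure 15 min at 22 °C before imaging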
Catalogue of sequences with associated switch fluorescence ratio
// keep it numeric: no unit symbol after the value

# switch fluorescence ratio lookup, item GCATCTAAGC
1.06

Now the same for TCCAATTGGG
1.11

Now the same for ATTGTAGAGC
1.02

Now the same for TCGTTTGGTC
0.986

Now the same for GGGGACAGTT
1.02

Now the same for GGGGAAGAGA
0.97

---
# switch fluorescence ratio lookup, item AGGATGGTTC
0.954

Now the same for GTGGGGCGTG
1

Now the same for TTTGTTGGGG
1.02

Now the same for GGGGGATTTA
0.992

Now the same for GGGTAACCGA
0.983

Now the same for ACCGGTTAAC
1.02

Now the same for ATGCGGGCCC
0.99

Now the same for CGCTCGGTTA
0.956

Now the same for TGATTCAGGG
1.03

Now the same for TCAAGACGCA
1.07

Now the same for TGCGGTAAGG
1

Now the same for TTCAGCAAT
5.31

Now the same for GGGTTGTTCT
0.979

Now the same for ATCTTTATGT
1.03

Now the same for TGAGGATTTT
1.05

Now the same for AGTCAGAAAT
1

---

test system: ATP; experiment: switch fluorescence ratio, 500 uM ATP over buffer (Cy3 cluster intensity, sum of 5 cycles each) (fold (ratio)); higher = stronger signal-on switching upon ATP binding; sequences stand for … in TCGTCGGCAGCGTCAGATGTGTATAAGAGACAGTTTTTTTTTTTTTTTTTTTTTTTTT…TC; conditions: aptamer strand: ATP DNA aptamer (quencher-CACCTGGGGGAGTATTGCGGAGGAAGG + anchor), 100 nM annealed; ATP concentration: 500 uM;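 also: ATP exposure 15 min at 22 °C before imaging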
recorded_endpoint: switch fluorescence ratio
// keep it numeric: no unit symbol after the value

Here are 5 sequences together with their reported answers.
# switch fluorescence ratio lookup, item GTTGGGTTGG
1

Now the same for TTCGAGCATT
1.39

Now the same for GGTCTACCGG
1.01

Now the same for TGGATTACTT
1.02

Now the same for TTACTTCGTA
1.06

---
# switch fluorescence ratio lookup, item GAATTGGCCT
1.02

Now the same for GGTGGGTGGA
1

Now the same for AGTTAATGAC
0.997

Now the same for CCGGGGGATT
1.4

Now the same for GTTTTACCGC
1.01

Now the same for TAGGATGTGT
1

Now the same for ACAGCCCGGA
1.07

Now the same for TAAGTGGTTT
1

---

system: ATP; assay: switch fluorescence ratio, 500 uM ATP over buffer (Cy3 cluster intensity, sum of 5 cycles each) (fold (ratio)); higher = stronger signal-on switching upon ATP binding; sequences stand for … in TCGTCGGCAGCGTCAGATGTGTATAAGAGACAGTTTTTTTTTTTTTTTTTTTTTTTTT…TC; conditions: aptamer strand: ATP DNA aptamer (quencher-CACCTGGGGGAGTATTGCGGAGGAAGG + anchor), 100 nM annealed; ATP concentration: 500 uM;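 also: ATP exposure 15 min at 22 °C before imaging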
Catalogue of sequences with associated switch fluorescence ratio
// keep it numeric: no unit symbol after the value

# switch fluorescence ratio lookup, item GGAGCAGGCG
1.04

Now the same for ATTGTGTGGG
0.999

Now the same for TTTATCTTGG
1.02

Now the same for ATATATTCC
1.1

Now the same for GGGTTAGATC
1.03

---
# switch fluorescence ratio lookup, item ATAAGGAACG
1.01

Now the same for TAGAATGGCT
0.991

Now the same for AGGCGCGGGT
0.998

Now the same for TTAAGAATTT
0.991

Now the same for GAGGGGATCG
0.967

---

Catalogue of sequences with associated switch fluorescence ratio
test system: ATP; assay: switch fluorescence ratio, 500 uM ATP over buffer (Cy3 cluster intensity, sum of 5 cycles each) (fold (ratio)); higher = stronger signal-on switching upon ATP binding; sequences stand for … in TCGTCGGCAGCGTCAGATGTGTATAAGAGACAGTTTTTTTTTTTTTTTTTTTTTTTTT…TC; details: aptamer strand: ATP DNA aptamer (quencher-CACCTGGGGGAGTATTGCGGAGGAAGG + anchor), 100 nM annealed; ATP concentration: 500 uM;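 also: ATP exposure 15 min at 22 °C before imaging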
// keep it numeric: no unit symbol after the value

# switch fluorescence ratio lookup, item AGGAAAAAGG
0.974

Now the same for GAGAGTAGAG
0.992

Now the same for ACTTTCTTAC
1.12

Now the same for TCTAAATAGG
0.991

Now the same for AGGTTTTCAG
0.983

---

Catalogue of sequences with associated switch fluorescence ratio
test system: ATP; experiment: switch fluorescence ratio, 500 uM ATP over buffer (Cy3 cluster intensity, sum of 5 cycles each) (fold (ratio)); higher = stronger signal-on switching upon ATP binding; sequences stand for … in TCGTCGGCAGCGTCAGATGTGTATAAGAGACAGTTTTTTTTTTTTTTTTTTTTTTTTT…TC; conditions: aptamer strand: ATP DNA aptamer (quencher-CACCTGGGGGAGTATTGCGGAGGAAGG + anchor), 100 nM annealed; ATP concentration: 500 uM;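 also: ATP exposure 15 min at 22 °C before imaging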
// keep it numeric: no unit symbol after the value

# switch fluorescence ratio lookup, item GCATGCAGGA
1.01

---
# switch fluorescence ratio lookup, item GGATTAGGGG
0.998

Now the same for TAATTTTCCG
1.02

Now the same for CGCGGGGAAG
0.98

Now the same for GGTTCCGGTA
1

Now the same for CGGGGGTGTA
0.995

Now the same for GCTTGCTCCG
4.46

Now the same for TTTCCACAT
0.972

Now the same for CGGGTGGCGG
0.994

Now the same for GATATTATTC
1.05

Now the same for ATGGGGTGGG
0.985

Now the same for TGGCCGGCTT
1.04

Now the same for CGGTTTGTGT
0.998

Now the same for CGTTGGGTCC
0.987

Now the same for GTTTGTAAGC
1.03

Now the same for ATTCGGAGGG
0.984

Now the same for TTTTTAGCCC
1.02

Now the same for AGGGGGACTG
0.964

Now the same for GCGGTCCGTT
0.961

Now the same for TTTTGGCGGG
0.983

Now the same for GGGTATGGCC
1.01
